Taken from PubChem BioAssay (NCATS).

The entries below come with measured Potency values attached.
# Test system: HEK293
# experiment.summary: Cytotoxic Profiling of Annotated Libraries Using Quantitative High-Throughput Screening (AID 1296008); note: nearly all actives have a fitted effect of over 60% in size; note: potency is the fitted concentration of half-maximal effect
# condition.parameters: Five cell lines viability, CellTiter-Glo ATP luminescence, 48-72 h
# Method: Cell-based phenotypic screening is a commonly used approach to discover biological pathways, novel drug targets, chemical probes and high-quality hit-to-lead molecules. […] A pintool (Kalypsys) was used to transfer 23 nL of compound solution to the 1536-well assay plates. […] Plates were left at room temperature for 10 min before imaging the ATP-coupled luminescence using a ViewLux microplate imager (PerkinElmer, Waltham, MA).
Results filed as inconclusive are left out. Calls of active or inactive are those of the source. Calls come from the whole dose curve; as a rule, active = well fitted inhibition curve with a large enough effect; inconclusive = small, poorly fitted or top-dose-only effect; inactive = flat fitted curve, though single readings scatter.

Incoming: Using the record for `O=C1NC(=O)C(c2cnc3ccccn23)=C1c1cn2c3c(cc(F)cc13)CN(C(=O)N1CCCCC1)CC2` , report its Potency.
Outgoing: 0.295 µM (active)

Incoming: Using the record for `N#Cc1ccnc(Nc2cc(C3CCN(C4COC4)CC3)cc(N3CCC(F)(F)C3)n2)c1` , report its Potency.
Outgoing: 8.31 µM (active)

Incoming: Using the record for `CC(C)(C)c1ccc(NC(=O)N2CCN(c3ncccc3Cl)CC2)cc1` , report its Potency.
Outgoing: 11.6 µM (active)

====

# System: CRL-7250
# experiment.summary: Cytotoxic Profiling of Annotated Libraries Using Quantitative High-Throughput Screening (AID 1296008); note: nearly all actives have a fitted effect of over 60% in size
# condition.parameters: Five cell lines viability, CellTiter-Glo ATP luminescence, 48-72 h
Inconclusive results are not listed. Active and inactive are the calls of the source. Calls come from the whole dose curve; as a rule, active = well fitted inhibition curve with a large enough effect; inconclusive = small, poorly fitted or top-dose-only effect; inactive = flat fitted curve, though single readings scatter.
Output constraint: value belongs to T for active, F for inactive

Check out these entries, answers already filled in.
* O=C(Nc1cccc2cccnc12)c1ccc(N2C(=O)[C@@H]3C4C=CC(C4)[C@@H]3C2=O)cc1 | T
* CO[C@H]1O[C@@H]2O[C@@]3(C)CCC4[C@H](C)CCC([C@H]1C)[C@]42OO3 (stereo partly specified) | F
* CC(C)c1ccc(NC(=O)Cn2cnc3c2c(=O)n(C)c(=O)n3C)cc1 | F
* CC(F)(F)CN1CCOc2c(nn(-c3ccccc3Cl)c2-c2ccc(Cl)cc2)C1=O | F

Proceed to the following item.
Incoming: Kindly provide the recorded test outcome for the following compound: `N#Cc1ccnc(Nc2cc(C3CCN(C4COC4)CC3)cc(N3CCC(F)(F)C3)n2)c1`
Outgoing: T

====

# target.desc: Luciferin 4-monooxygenase (Photinus pyralis)
# experiment.summary: Primary firefly luciferase (FLuc) qHTS assay for identification of artifact compounds. (AID 1845220); note: potency is the fitted concentration of half-maximal effect; nearly all actives have a fitted effect of over 60% in size
# condition.parameters: purified firefly luciferase, luminescence, 5 min; series mostly up to 54.1 µM
Active and inactive are the calls of the source. Calls follow the shape of the dose curve; as a rule, active = well fitted inhibition curve with a large enough effect; inconclusive = small, poorly fitted or top-dose-only effect; inactive = flat fitted curve, though single readings scatter.
parameter.measured: Potency

Examples with answers:
• COc1ccc(-c2cc3onc(-c4ccncc4)c3c(=O)n2C)cc1 = 1.9 µM (active)
• CC(C)(O)C1Cc2c(ccc(C(=O)CCc3ccccc3)c2O)O1 (configuration not stated) = 0.294 µM (active)
• COc1cc(O)cc(/C=C/c2cccc(O)c2)c1 = 10.7 µM (active)
• Cc1ccc(NC(=O)c2ccc(CN3CCNCC3)cc2)cc1Nc1nccc(-c2cccnc2)n1 = 6.75 µM (active)
• S=C(c1ccc(-c2ccc(Cl)c(Cl)c2)o1)N1CCCCC1 = 1.69 µM (active)

Incoming: Using the record for C=C1C(=O)OC2CC(C)C(CCC(C)O)=CCC12 (configuration not stated) , report its Potency.
Outgoing: 6.75 µM (active)

Incoming: Using the record for `COc1cc(OC)c2c(=O)[nH]c(-c3cc(C)c(OCCO)c(C)c3)nc2c1` , report its Potency.
Outgoing: 15.1 µM (active)

Incoming: Using the record for `CC(C)(C)c1ccc(-c2nc3c(N4CCN(Cc5ccc6nccnc6c5)CC4)cccc3[nH]2)cc1` , report its Potency.
Outgoing: 1.51 µM (active)

Incoming: Using the record for `O=C(Nc1ccc(N2C(=O)[C@@H]3[C@H](C2=O)[C@@H]2C=C[C@H]3C2)c(Cl)c1)c1ccccn1` , report its Potency.
Outgoing: 19 µM (active)

Incoming: Using the record for `O=C(COc1ccc2ccccc2c1Br)Nc1cccnc1` , report its Potency.
Outgoing: 6.01 µM (active)

Incoming: Using the record for `Cc1ccc(C(=O)Nc2ccc(CN3CCN(C)CC3)c(C(F)(F)F)c2)cc1C#Cc1cnc2[nH]ncc2c1` , report its Potency.
Outgoing: 23.9 µM (active)

Incoming: Using the record for `CC(=O)Nc1cccc(-c2csc(Nc3cc(C)ccn3)n2)c1` , report its Potency.
Outgoing: 3.01 µM (active)

====

# experiment.summary: Primary fluorescence-based thiol-reactive (MSTI) qHTS assay for identification of artifact compounds. (AID 1845221); note: nearly all actives have a fitted effect of over 65% in size
# condition.parameters: MSTI thiol-reactivity probe, 1 h; series mostly up to 53.8 µM
Records with an inconclusive call do not appear. Activity calls are given as the source filed them. Calls follow the shape of the dose curve; as a rule, active = well fitted inhibition curve with a large enough effect; inconclusive = small, poorly fitted or top-dose-only effect; inactive = no such curve, though single readings can be large or run the other way.
Output constraint: value belongs to True = active, False = inactive

Incoming: Kindly provide the recorded test outcome for the following molecule: `NC(=O)c1ccccc1Nc1ccnc(Nc2cccc(O)c2)n1`
Outgoing: False

Incoming: Kindly provide the recorded test outcome for the following molecule: `COc1c(C)cnc(Cn2cc(C#CCC(C)(C)O)c3c(Cl)nc(N)nc32)c1C`
Outgoing: False

Incoming: Kindly provide the recorded test outcome for the following molecule: `CN(C)Cc1ccc(-c2cnn3c(-c4cccc(NC(=O)c5cccc(C(F)(F)F)c5)c4)ccnc23)cc1`
Outgoing: False

Incoming: Kindly provide the recorded test outcome for the following molecule: CC[C@@H](C)Nc1cc(C(=O)NC2CC3CC[C@@H](C2)N3c2ccc(C(=O)C3CC3)cn2)c(C)cc1C(N)=O (some centres undefined)
Outgoing: False

Incoming: Kindly provide the recorded test outcome for the following molecule: `O=S(=O)(NCc1ccccn1)c1ccc(Br)c2ccccc12`
Outgoing: False

Incoming: Kindly provide the recorded test outcome for the following molecule: `COc1ccc(NC(=O)c2ccc(-c3ccc(C(=N)N)cc3C)cc2)cc1N1CCN(C)CC1`
Outgoing: False

Incoming: Kindly provide the recorded test outcome for the following molecule: `COc1cc2ncnc(Nc3cccc(I)c3)c2cc1OC`
Outgoing: False

Incoming: Kindly provide the recorded test outcome for the following molecule: `CCc1c[nH]c2ncnc(N3CC[C@](N)(CNC(=O)c4ccc(F)cc4F)C3)c12`
Outgoing: False

Incoming: Kindly provide the recorded test outcome for the following molecule: `CC(C)(O)C(=O)N1CCN(c2ccc(C(F)(F)F)c(C3=C(c4c[nH]c5ccccc45)C(=O)NC3=O)c2)CC1`
Outgoing: True

====

# target.desc: Guanidinoacetate N-methyltransferase (Homo sapiens) (UniProt Q14353)
# experiment.summary: Confirmatory Screen for Target Class Profiling of Small Molecule Inhibitors of Methyltransferases (AID 1745852)
# condition.parameters: MTase-Glo luminescence, SAH detection, recombinant enzyme; series mostly up to 57.3 µM
Active and inactive are the calls of the source. Calls follow the shape of the full dose curve.
Output constraint: value belongs to YES for active, NO for inactive

Check out these entries, answers already filled in.
• CC1=C(C(=O)OC2CCCCC2)C(c2ccc([N+](=O)[O-])cc2)C2=C(CC(C)(C)CC2=O)N1 (stereo not given) = YES
• C=CC(=O)Nc1ccc2ncnc(Nc3cccc(Br)c3)c2c1 = YES
• CC(C)(C)Sc1c(CC(C)(C)C(=O)O)n(Cc2ccc(Cl)cc2)c2ccc(OCc3ccc4ccccc4n3)cc12 = NO
• Cc1nc(C#Cc2ccnc(Cl)c2)c(C)n1-c1ccc(F)cc1 = YES
• N#C/C(=C1\Nc2ccccc2S1)c1ccnc(NCCc2cccnc2)n1 = YES

Incoming: Kindly provide the recorded test outcome for the following compound: `Cc1cc2c(N3CCCC3)nc(N3CCCC3)nc2n1C`
Outgoing: YES

Incoming: Kindly provide the recorded test outcome for the following compound: `Cc1cc(C)cc(-c2cnc3cc(Cl)c(-c4cccc(O)c4)cc3c2OCCCN)c1`
Outgoing: YES

Incoming: Kindly provide the recorded test outcome for the following compound: `CN(C)c1ccc(NC(=O)NS(=O)(=O)c2ccc(Cl)cc2)cc1`
Outgoing: YES

Incoming: Kindly provide the recorded test outcome for the following compound: `C=CC(=O)Nc1cccc(Nc2nc(Nc3ccc(OCCOC)cc3)ncc2F)c1`
Outgoing: YES

Incoming: Kindly provide the recorded test outcome for the following compound: `CC#C[C@@H](CC(=O)O)c1ccc(OCc2cccc(-c3ccc(C(F)(F)F)cc3)c2)cc1`
Outgoing: NO

====

# target.desc: Cytochrome P450 2D6 (Homo sapiens) (UniProt P10635)
# Sequence (P10635 whole entry, looked up): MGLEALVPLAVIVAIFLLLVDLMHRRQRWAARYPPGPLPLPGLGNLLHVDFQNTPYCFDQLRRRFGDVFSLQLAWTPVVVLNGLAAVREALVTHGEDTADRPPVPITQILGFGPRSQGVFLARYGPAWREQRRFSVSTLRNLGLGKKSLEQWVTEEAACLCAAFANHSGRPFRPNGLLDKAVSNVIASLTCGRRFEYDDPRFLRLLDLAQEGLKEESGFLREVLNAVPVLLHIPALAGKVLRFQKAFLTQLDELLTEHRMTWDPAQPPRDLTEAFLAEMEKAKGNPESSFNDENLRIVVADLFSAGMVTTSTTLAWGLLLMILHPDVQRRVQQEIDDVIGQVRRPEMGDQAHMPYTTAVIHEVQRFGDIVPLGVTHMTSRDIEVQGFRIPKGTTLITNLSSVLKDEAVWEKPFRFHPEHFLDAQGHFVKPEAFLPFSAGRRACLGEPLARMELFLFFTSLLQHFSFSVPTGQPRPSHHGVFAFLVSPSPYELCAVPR
# experiment.summary: Cytochrome P450 family 2 subfamily D member 6 (CYP2D6) small molecule antagonists: luciferase biochemical (cell-free) qHTS assay (AID 1645840); note: nearly all actives have a fitted effect of over 55% in size; note: potency is the fitted concentration of half-maximal effect
# condition.parameters: P450-Glo CYP2D6 enzyme, luciferin luminescence, 1 h; series mostly up to 57.4 µM
Records with an inconclusive call do not appear. Calls of active or inactive are those of the source. Calls come from the whole dose curve; as a rule, active = well fitted inhibition curve with a large enough effect in the repeat runs; inconclusive = weak or mixed curves; inactive = flat fitted curve, though single readings scatter.
parameter.measured: Potency

Examples with answers:
- CN(C)C(=O)Nc1cccc(-c2ccc(N(C)C)cc2)c1: 21.3 µM (active)
- CC(C)c1noc(C2CCN(c3ncnc(Nc4ccc(S(C)(=O)=O)cc4F)c3[N+](=O)[O-])CC2)n1: inactive
- CCOC(=O)C1=Cc2ccc(C(F)(F)C(F)(F)F)cc2N=C(N)C1: 3.01 µM (active)
- CCN(CCNC(=O)Nc1ccccc1Br)c1cccc(C)c1: 1.9 µM (active)
- Cc1nc(Nc2ccc(F)cc2)nc(N2CCc3ccccc3C2C)c1C (stereo not given): 7.56 µM (active)
- O=C(CNC(=O)c1cccc(C(F)(F)F)c1)N[C@@H]1CCN(Cc2ccc(Cl)cc2)C1: 0.0535 µM (active)
- COc1nc2ccc(Br)cc2cc1[C@@H](c1ccccc1)[C@@](O)(CCN(C)C)c1cccc2ccccc12: 7.56 µM (active)
- COc1cc(F)c(C(C)C)cc1-c1ccc(C(F)(F)F)cc1CN1C(=O)OC(c2cc(C(F)(F)F)cc(C(F)(F)F)c2)C1C (stereo not given): inactive

Incoming: Using the record for `CCNc1nc(Nc2cc(F)c(C(=O)N3CCOCC3)cc2OC)ncc1C(F)(F)F` , report its Potency.
Outgoing: inactive

Incoming: Using the record for `C=C(C)[C@@H]1CC=C(COC(=O)NC(=O)c2ncn3c(=O)n(C)nnc23)CC1` , report its Potency.
Outgoing: inactive
